Listed next: entries and their corresponding KA.
System: Sulfurihydrogenibium yellowstonense
Assay text: Activation of Sulfurihydrogenibium yellowstonense recombinant CA by stopped flow CO2 hydrase method
Give your result in µM as a bare value.

Sample records with KA:
> print(dat)
                    molecule  meas.value
1              NCCc1c[nH]cn1        0.08
2     NCCc1c[nH]c2ccc(O)cc12       0.021
3                 NCc1ccccn1         0.1
4                NCCN1CCNCC1        0.09
5                NCCc1ccccn1        0.33
6  N[C@H](Cc1c[nH]cn1)C(=O)O       0.012

Requested field: KA. Item: N[C@@H](Cc1c[nH]cn1)C(=O)O
0.11

Do the same for NCCN1CCOCC1 please
0.1

Do the same for N[C@H](Cc1c[nH]c2ccccc12)C(=O)O please
0.002

Do the same for N[C@@H](Cc1ccc(O)cc1)C(=O)O please
0.001
